Sourced from PubChem BioAssay (NCATS)

experiment: qHTS profiling of the MIPE4 collection as inhibitors of Plasmodium falciparum (HB3) proliferation (AID 743347);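 note: plate controls were DMSO vehicle wells for no effect and artemisinin wells for full effect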; conditions: P. falciparum HB3 in erythrocytes, SYBR Green DNA, 72 h; at 28.5 µM (top of the series) unless noted
Threshold check on growth, % of control: strictly below 90% is class 1; on or above 90% is class 0.

CNCC(O)c1ccc(O)cc1 (stereo unspecified)
class 1
Cc1ccnc2c1NC(=O)c1cccnc1N2C1CC1
class 0
Oc1cc(Cl)ccc1Oc1ccc(Cl)cc1Cl
class 1

From here, focus on the item given below.
IN: Criterion: growth, % of control strictly below 90%. Is it met by `Cn1cc(C2=C(c3cn(C4CCN(Cc5ccccn5)CC4)c4ccccc34)C(=O)NC2=O)c2ccccc21` ?
OUT: class 1

---

assay: qHTS of pediatric cancer cell lines to identify multiple opportunities for drug repurposing: Primary screen for SK-N-MC cells (AID 1347093); settings: SK-N-MC viability, CellTiter-Glo luminescence, 48 h; series mostly up to 46 µM; note: potency is the fitted concentration of half-maximal effect
Records with an inconclusive call do not appear. Active and inactive are the calls of the source. The call rests on the fitted dose curve; in most records, active means well fitted cell-killing curve with a large enough effect; inconclusive means small, poorly fitted or top-dose-only effect; inactive means no such curve, though single readings can be large or run the other way.
Parameter call: string, one of active, inactive

IN: Called result for `CN(C)CCN(C)CCc1ccc(Cl)c(Cl)c1`
OUT: active

---

experiment: Quantitative High-Throughput drug screen in 47 multiple myeloma cell lines against the NCATS MIPE library collection: ARD_JJKsccE7 cell viability assay (AID 1918929; note: potency is the fitted concentration of half-maximal effect;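 for viability: 100% = DMSO-only wells and 0% = media-only wells without cells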); conditions: ARD myeloma cell line viability, CellTiter-Glo, 48 h; series mostly up to 45.8 µM
Inconclusive results are not listed. The source made the active and inactive calls. Calls follow the shape of the dose curve; as a rule, active = well fitted cell-killing curve with a large enough effect; inconclusive = small, poorly fitted or top-dose-only effect, or effect the other way; inactive = no such curve, though single readings can be large or run the other way.
metric-name: Potency

# example entries with known answers
CN(C)[C@@H]1C(=O)C(C(N)=O)=C(O)[C@@]2(O)C(=O)C3=C(O)c4c(O)cccc4[C@@](C)(O)[C@H]3C[C@@H]12
inactive
Cn1c(CCCC(=O)O)nc2cc(N(CCCl)CCCl)ccc21
inactive
C[C@@H]1[C@@H](C(=O)C[C@H]2O[C@@H]3O[C@]4(C)CC[C@@H]5[C@H](C)CC[C@@H]([C@H]2C)[C@@]35OO4)O[C@@H]2O[C@]3(C)CC[C@H]4[C@H](C)CC[C@@H]1[C@@]24OO3
148 nM (active)
COC[C@H]1OC(=O)c2coc3c2[C@@]1(C)C1=C(C3=O)C2CCC(=O)[C@@]2(C)C[C@H]1OC(C)=O (some centres not stated)
14800 nM (active)
CC(C)CC(N(C)C)C1(c2ccc(Cl)cc2)CCC1 (configuration not stated)
inactive

IN: Quick check: Potency of `CN(C)CCN(C)CCc1ccc(Cl)c(Cl)c1` ?
OUT: inactive

IN: How about `C=C(C)[C@H]1Cc2c(ccc3c2O[C@@H]2COc4cc(OC)c(OC)cc4[C@@H]2C3=O)O1` ?
OUT: 332 nM (active)

IN: How about `N[C@@H](Cc1ccc(N(CCCl)CCCl)cc1)C(=O)O` ?
OUT: 18700 nM (active)

IN: How about `CNC(=O)c1ccc(N2C(=S)N(c3ccc(C#N)c(C(F)(F)F)c3)C(=O)C23CCC3)cc1F` ?
OUT: 16600 nM (active)

IN: How about COc1ccc(C(CN(C)C)C2(O)CCCCC2)cc1 (configuration not stated) ?
OUT: inactive

IN: How about COC1(CS(=O)c2ccccc2)CCN(CCc2c[nH]c3ccc(F)cc23)CC1 (configuration not stated) ?
OUT: inactive

IN: How about `CC1=C2C[C@@H]3[C@@H](CC=C4C[C@@H](O)CC[C@@]43C)[C@@H]2CC[C@]12O[C@H]1C[C@H](C)CN[C@H]1[C@H]2C` ?
OUT: inactive
